- Tested on: HT-29 (human colon adenocarcinoma)
- test protocol: MTS cytotoxicity assay, HT-29 cells
- Assay type: cell-based
- settings: HT-29, 24 h, read-out: IC50 HT-29 24 hours
reported endpoint: IC50 (µM)
Value expressed in µM; do not type the unit.

Supply measured IC50 of COc1cc([C@@H]2c3cc4c(cc3[C@@H](O[C@@H]3O[C@@H]5CO[C@@H](C)O[C@H]5[C@H](O)[C@H]3O)[C@H]3COC(=O)[C@H]23)OCO4)cc(OC)c1O [Etoposide] in your reply.
19.2
